- assay-target: T1, tCid1 mutant 2 (Schizosaccharomyces pombe, UniProt O13833 33-405, K321A;R323A)
- T1 sequence: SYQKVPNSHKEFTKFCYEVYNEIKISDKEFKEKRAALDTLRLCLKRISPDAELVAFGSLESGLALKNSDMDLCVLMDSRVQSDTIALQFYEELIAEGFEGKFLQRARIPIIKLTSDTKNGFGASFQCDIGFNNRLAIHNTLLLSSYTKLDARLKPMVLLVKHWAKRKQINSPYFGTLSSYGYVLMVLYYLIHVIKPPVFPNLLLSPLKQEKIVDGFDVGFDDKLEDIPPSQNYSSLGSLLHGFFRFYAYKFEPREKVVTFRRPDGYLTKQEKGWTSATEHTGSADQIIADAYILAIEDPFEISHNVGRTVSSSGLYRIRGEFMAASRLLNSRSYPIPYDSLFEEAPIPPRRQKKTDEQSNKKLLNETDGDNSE
- experimental-protocol: SPR
quantity-kind: Kd

Q) Fill in reported Kd for this entry: GAUUUGACGUUGGUUUUGACG (ssRNA) [21 nt SPR RNA]
A) ~450 nM
